# % Inh (%) @ 0.2 μM annotations
target system: canine TRPM8 (Canis lupus familiaris, UniProt Q1A7N1)
Sequence (Q1A7N1 1-1104): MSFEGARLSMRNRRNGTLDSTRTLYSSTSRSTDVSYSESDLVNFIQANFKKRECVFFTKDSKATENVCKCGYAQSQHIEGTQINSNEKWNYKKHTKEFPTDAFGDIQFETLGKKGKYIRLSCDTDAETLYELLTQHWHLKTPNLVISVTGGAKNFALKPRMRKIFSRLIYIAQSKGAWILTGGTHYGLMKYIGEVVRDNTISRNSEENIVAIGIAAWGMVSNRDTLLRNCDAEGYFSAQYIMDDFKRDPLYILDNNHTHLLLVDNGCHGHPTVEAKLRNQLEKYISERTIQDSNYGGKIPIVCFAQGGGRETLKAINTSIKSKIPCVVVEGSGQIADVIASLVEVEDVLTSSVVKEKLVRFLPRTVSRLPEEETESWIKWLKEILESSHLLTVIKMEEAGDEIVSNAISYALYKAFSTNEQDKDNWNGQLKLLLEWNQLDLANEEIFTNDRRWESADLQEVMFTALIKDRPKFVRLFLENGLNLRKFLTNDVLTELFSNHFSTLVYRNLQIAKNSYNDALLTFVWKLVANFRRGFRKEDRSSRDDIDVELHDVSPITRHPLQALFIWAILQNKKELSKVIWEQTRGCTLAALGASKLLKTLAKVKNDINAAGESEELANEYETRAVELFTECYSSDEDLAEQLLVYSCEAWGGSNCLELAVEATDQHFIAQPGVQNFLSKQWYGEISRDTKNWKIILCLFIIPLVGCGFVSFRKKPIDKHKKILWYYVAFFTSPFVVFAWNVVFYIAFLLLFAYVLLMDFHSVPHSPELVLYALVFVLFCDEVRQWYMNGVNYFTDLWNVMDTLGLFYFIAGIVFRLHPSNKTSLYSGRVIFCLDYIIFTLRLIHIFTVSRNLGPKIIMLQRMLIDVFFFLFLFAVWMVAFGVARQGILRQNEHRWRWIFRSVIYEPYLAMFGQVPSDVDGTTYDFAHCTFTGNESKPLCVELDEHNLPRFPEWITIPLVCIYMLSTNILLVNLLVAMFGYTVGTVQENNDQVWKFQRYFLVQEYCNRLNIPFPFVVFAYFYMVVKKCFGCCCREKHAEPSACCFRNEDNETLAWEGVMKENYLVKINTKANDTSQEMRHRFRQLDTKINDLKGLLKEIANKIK
assay protocol: In Vitro Canine TRPM8 Functional Assay (intracellular Ca2+ fluorescence, icilin challenge)
Type: cell-based
test parameters: @ 0.2 μM; HEK293 cells stably expressing canine TRPM8
Answer in %, number only, no unit symbol.

smiles code: COC(=O)c1ccc(S(=O)(=O)N(Cc2ccc(OC(F)(F)F)cc2)c2nc3ccccn3c2C(C)C)cc1
quantity: % Inh (%) @ 0.2 μM
quantitative readout: 101
--
smiles code: O=S(=O)(c1ccccc1)N(Cc1ccc(F)c(C(F)(F)F)c1)c1nc2ccccn2c1C1CC1
quantity: % Inh (%) @ 0.2 μM
quantitative readout: 101
--
smiles code: O=S(=O)(c1ccccc1)N(Cc1ccc(F)c(C(F)(F)F)c1)c1nc2ccc(Cl)cn2c1Cl
quantity: % Inh (%) @ 0.2 μM
quantitative readout: 96
--
smiles code: Cc1cccn2c(C)c(N(Cc3ccc(OC(F)(F)F)cc3)S(=O)(=O)c3ccc(C(=O)[O-])cc3)nc12.[Na+]
quantity: % Inh (%) @ 0.2 μM
quantitative readout: 101
--
smiles code: Cc1c(N(Cc2ccc(OC(F)(F)F)cc2)S(=O)(=O)c2ccc(C(=O)[O-])cc2)nc2ccccn12.[Na+]
quantity: % Inh (%) @ 0.2 μM
quantitative readout: 101

Ask: For the molecule "CC(C)c1c(N(Cc2ccc(OC(F)(F)F)cc2)S(=O)(=O)c2ccc(C(=O)[O-])cc2)nc2ccccn12.[Na+]" , what % Inh (%) @ 0.2 μM is on record?
Result: 101

Ask: Follow-up item: "Cc1c(N(Cc2ccc(OC(F)(F)F)cc2)S(=O)(=O)c2ccc(C(=O)O)cc2)nc2c(F)cccn12"
Result: 99

###

Listed next: entries and their corresponding inhibition at 0.2 µM.
target system: canine TRPM8 (Canis lupus familiaris)
assay protocol: In Vitro Canine TRPM8 Functional Assay (intracellular Ca2+ fluorescence, icilin challenge)
Type: cell-based
test parameters: HEK293, @ 0.2 μM; HEK293 cells stably expressing canine TRPM8; read-out: % Inh (%) @ 0.2 μM
Give the quantity in %, number only.

Solved entries (count: 2):
smiles code: Cc1c(N(Cc2ccc(F)c(Cl)c2)S(=O)(=O)c2ccccc2)nc2ccc(Cl)cn12
unit descriptor: %
inhibition at 0.2 µM: 99
//
smiles code: Cc1ccn2c(C)c(N(Cc3ccc(F)c(C(F)(F)F)c3)S(=O)(=O)c3ccc(Br)cc3)nc2c1
unit descriptor: %
inhibition at 0.2 µM: 99

Let us move to another entry and its inhibition at 0.2 µM.
Ask: GET /values?readout=inhibition at 0.2 µM&item= "Cc1cccc2nc(N(Cc3ccc(C(F)(F)F)c(F)c3)S(=O)(=O)c3ccccc3)c(C)n12"
Result: 99

###

target system: canine TRPM8 (Canis lupus familiaris, UniProt Q1A7N1)
assay protocol: In Vitro Canine TRPM8 Functional Assay (intracellular Ca2+ fluorescence, icilin challenge)
test parameters: HEK293 cells stably expressing canine TRPM8; icilin at ~80% maximal response
quantity: IC50 (nM)
Return type: number; implicit unit nM.

Solved cases below.
molecule: Cc1ccc2nc(N(Cc3ccc(C(F)(F)F)c(F)c3)S(=O)(=O)c3ccc(F)cc3)c(C)n2c1 [Compound 68]
unit descriptor: nM
quantitative readout: 41.6

molecule: CCc1c(N(CC2CC2)S(=O)(=O)c2ccccc2)nc2c(C(F)(F)F)cccn12 [Compound 65]
unit descriptor: nM
quantitative readout: 62.8

molecule: CCc1c(N(Cc2cccc(C(F)(F)F)c2)S(=O)(=O)c2ccccc2)nc2c(C(F)(F)F)cccn12 [Compound 59]
unit descriptor: nM
quantitative readout: 80.2

molecule: O=S(=O)(c1ccccc1)N(Cc1ccc(F)c(C(F)(F)F)c1)c1cn2ccccc2n1 [Compound 13]
unit descriptor: nM
quantitative readout: 48.9

Ask: Form field: reported IC50 of Cc1c(N(Cc2ccc(F)c(Cl)c2)S(=O)(=O)c2ccccc2)nc2ccc(Cl)cn12 [Compound 46]
Result: 13.6

Ask: What about CS(=O)(=O)N(Cc1ccc(OC(F)(F)F)cc1)c1nc2ccccn2c1Br [Compound 4] ?
Result: 16.7

Ask: Also need O=S(=O)(c1ccc(F)cc1)N(Cc1ccc(F)c(C(F)(F)F)c1)c1nc2ccccn2c1Cl [Compound 10] , thanks.
Result: 17.4

Ask: Same question for CCc1c(N(Cc2ccc(C(F)(F)F)c(F)c2)S(=O)(=O)c2ccc(N3CCOCC3)nc2)nc2ccc(Cl)cn12 [Compound 87] please.
Result: 86.3

###

target system: canine TRPM8 (Canis lupus familiaris, UniProt Q1A7N1)
assay protocol: In Vitro Canine TRPM8 Functional Assay (intracellular Ca2+ fluorescence, icilin challenge)
Format: cell-based
test parameters: HEK293, @ 0.2 μM; HEK293 cells stably expressing canine TRPM8; read-out: % Inh (%) @ 0.2 μM
quantity: inhibition at 0.2 µM (%)
API: value field is a number in %; no unit string.

smiles code: Cc1c(N(Cc2ccc(OC(F)(F)F)cc2)S(C)(=O)=O)nc2ccc(F)cn12
target system: canine TRPM8 (Canis lupus familiaris, UniProt Q1A7N1)
quantitative readout: 51
--
smiles code: O=S(=O)(c1ccccc1)N(Cc1ccc(OC(F)(F)F)cc1)c1nc2ccccn2c1C1CC1
target system: canine TRPM8 (Canis lupus familiaris, UniProt Q1A7N1)
quantitative readout: 101
--
smiles code: Cc1ccc2nc(N(Cc3ccc(C(F)(F)F)c(F)c3)S(=O)(=O)c3ccc(F)cc3)c(C)n2c1
target system: canine TRPM8 (Canis lupus familiaris, UniProt Q1A7N1)
quantitative readout: 100

Please examine the following record next.
Ask: Reported inhibition at 0.2 µM for "O=S(=O)(c1ccc(N2CCOCC2)nc1)N(Cc1ccc(C(F)(F)F)c(F)c1)c1nc2ccccn2c1Cl" : what is it?
Result: 99

###

Each entry below lists one item and its recorded pIC50 value.
target system: UniProtKB Q1A7N1
assay protocol: In Vitro Canine TRPM8 Functional Assay (intracellular Ca2+ fluorescence, icilin challenge)
Type: cell-based
test parameters: HEK293 cells stably expressing canine TRPM8; icilin at ~80% maximal response
Friendly reminder that pIC50 comes from taking -log10 of the concentration in mol/L.

Known results for compounds:
smiles code: CCc1c(N(CCCCC(F)(F)F)S(=O)(=O)c2ccccc2)nc2c(C(F)(F)F)cccn12
pIC50: 7.66
//
smiles code: O=S(=O)(c1ccccc1)N(Cc1ccc(OC(F)(F)F)cc1)c1nc2ccccn2c1C1CC1
pIC50: 7.67
//
smiles code: O=S(=O)(c1ccc(-n2cccn2)cc1)N(Cc1ccc(F)c(C(F)(F)F)c1)c1nc2ccccn2c1Cl
pIC50: 8.15
//
smiles code: CC(C)c1c(N(Cc2ccc(C(F)(F)F)cc2)S(=O)(=O)c2ccccc2)nc2ccccn12
pIC50: 8.50
//
smiles code: Cc1c(N(Cc2ccc(OC(F)(F)F)cc2)S(=O)(=O)c2ccccc2)nc2ccccn12
pIC50: 8.25

Ask: Return pIC50 measured with UniProtKB Q1A7N1 given this compound: "O=S(=O)(c1ccccc1)N(Cc1ccc(C(F)(F)F)c(F)c1)c1nc2ccc(Cl)cn2c1Cl"
Result: 7.49

Ask: Also "Cc1c(N(Cc2ccc(OC(F)(F)F)cc2)S(=O)(=O)c2ccc(C(=O)[O-])cc2)nc2ccccn12.[Na+]" ?
Result: 8.25

Ask: Now consider "Cc1c(N(Cc2ccc(F)c(C(F)(F)F)c2)S(=O)(=O)c2ccc(C(=O)O)cc2)nc2ccc(F)cn12" and answer again.
Result: 7.48

Ask: Here is the next compound: "O=S(=O)(c1ccc(-n2cccn2)cc1)N(Cc1ccc(OC(F)(F)F)cc1)c1nc2ccccn2c1Br"
Result: 8.64

Ask: Next compound up: "Cc1ccn2c(C)c(N(Cc3ccc(F)c(C(F)(F)F)c3)S(=O)(=O)c3ccccc3)nc2c1"
Result: 8.10

Ask: How about this compound: "COC(=O)c1ccc(S(=O)(=O)N(Cc2ccc(OC(F)(F)F)cc2)c2nc3ccccn3c2Cl)cc1"
Result: 8.28

Ask: Lookup "Cc1ccn2c(C)c(N(Cc3ccc(F)c(C(F)(F)F)c3)S(=O)(=O)c3ccc(Br)cc3)nc2c1"
Result: 7.60

Ask: Input "O=S(=O)(c1ccccc1)N(Cc1ccc(C(F)(F)F)cc1)c1nc2ccccn2c1C1CC1"
Result: 7.95

Ask: Follow-up entry: "Cc1c(N(Cc2ccc(OC(F)(F)F)cc2)S(=O)(=O)c2ccc(C(=O)O)cc2)nc2ccc(Cl)cn12"
Result: 7.84

Ask: Please answer likewise for "COC(=O)c1ccc(S(=O)(=O)N(Cc2ccc(OC(F)(F)F)cc2)c2nc3ccc(F)cn3c2C)cc1"
Result: 7.74

###

target system: canine TRPM8 (Canis lupus familiaris)
assay protocol: In Vitro Canine TRPM8 Functional Assay (intracellular Ca2+ fluorescence, icilin challenge)
test parameters: HEK293 cells stably expressing canine TRPM8
quantity: EC50 (nM)
Answer format: numeric, nM implied, no suffix.

Ask: Give EC50 (canine TRPM8 (Canis lupus familiaris)) of the following molecule: "Cc1c(N(Cc2ccc(OC(F)(F)F)cc2)S(=O)(=O)CCN(CC(C)C)CC(C)C)nc2cc(C(F)(F)F)ccn12"
Result: 93
